- measurement-description: biolocalization of the radionuclide in rats (tissue distribution after tail vein injection)
- Assay type: in vivo, male Sprague Dawley rats
- reported-conditions: Sm-153; two hours; comparative; average of 5 rats (MDP, HEDP), 3 rats (PYP, IDP)
result-type: % Dose In Blood (% Dose)
Give just the number in % Dose; leave the unit off.

Name the reported % Dose In Blood value associated with the compound O=P(O)(O)CP(=O)(O)O.[153Sm+3] [Sm-153 MDP, reference compound]
0.23

Data request, read-out % Dose In Blood, for CC(O)(P(=O)(O)O)P(=O)(O)O.[153Sm+3] [Sm-153 HEDP, reference compound]
13

% Dose In Blood for O=P(O)(O)NP(=O)(O)O.[153Sm+3] [Sm-153 IDP, reference compound] ?
0.04

Suppose we examine the compound O=P(O)(O)OP(=O)(O)O.[153Sm+3] [Sm-153 PYP, reference compound] ; what % Dose In Blood value has been reported?
0.23
